target.desc: Cyclin-dependent kinase 8 (Homo sapiens)
Sequence (P49336 whole entry): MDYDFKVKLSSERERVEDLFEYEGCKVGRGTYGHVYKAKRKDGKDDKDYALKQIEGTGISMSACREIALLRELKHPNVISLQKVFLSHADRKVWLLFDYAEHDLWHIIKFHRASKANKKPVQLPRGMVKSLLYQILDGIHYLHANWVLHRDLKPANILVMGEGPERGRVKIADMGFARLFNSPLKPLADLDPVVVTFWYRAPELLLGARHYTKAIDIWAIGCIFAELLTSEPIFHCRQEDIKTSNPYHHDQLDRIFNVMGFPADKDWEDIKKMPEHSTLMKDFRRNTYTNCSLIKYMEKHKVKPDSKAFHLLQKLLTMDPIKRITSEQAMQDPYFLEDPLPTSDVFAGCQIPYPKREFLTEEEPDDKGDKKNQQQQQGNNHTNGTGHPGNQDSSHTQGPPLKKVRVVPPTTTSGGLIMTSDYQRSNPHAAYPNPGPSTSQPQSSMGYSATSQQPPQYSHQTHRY
method.notes: Inhibition of CDK8 (unknown origin) at 200 nM incubated in presence of ATP by ADP-Glo kinase assay relative to control
measured.quantity: inhibition (%)

>  <smiles.str>
Cc1ccc(NC(=O)NCCc2cccc(-c3cnc4[nH]ccc4c3)c2)cc1C(F)(F)F

>  <inhibition (%)>
51.2

$$$$

I. O=C(NCCc1cccc(-c2cnc3[nH]ccc3c2)c1)Nc1ccc(F)c(C(F)(F)F)c1
II. Cc1ccc(C(=O)NCCc2cccc(-c3cnc4[nH]ccc4c3)c2)cc1C(F)(F)F
Identify the entry with the smaller inhibition: I or II . Please identify the chosen entry by its label.
I

a. O=C(NCCc1cccc(-c2cnc3[nH]ccc3c2)c1)Nc1ccccc1F
b. COc1ccc(NC(=O)NCCc2cccc(-c3cnc4[nH]ccc4c3)c2)cc1C(F)(F)F
Kindly identify which of a and b has the larger recorded inhibition value. Please identify the chosen entry by its label.
b
(b: 73.1%, a: 10.1%)

* * *

method.notes: Tmax in Sprague-Dawley rat at 10 mg/kg, po measured upto 12 hrs by LC-MS/MS analysis
Type: ADME, organism-based
condition.set: in vivo
measured.quantity: Tmax (min)
Form entry: value (min) — number only.

Name the recorded Tmax of the item Cc1ccc(NC(=O)CCc2cccc(-c3cnc4[nH]ccc4c3)c2)cc1C(F)(F)F in your answer.
45

* * *

method.notes: Cmax in Sprague-Dawley rat at 10 mg/kg, po measured upto 12 hrs by LC-MS/MS analysis
Format: ADME, organism-based
Set-up: time < 12 hrs, dose 10 mg/kg, route po
condition.set: in vivo
measured.quantity: Cmax (ng/mL)
Form entry: value (ng/mL) — number only.

Name the recorded Cmax of the item Cc1ccc(NC(=O)CCc2cccc(-c3cnc4[nH]ccc4c3)c2)cc1C(F)(F)F in your answer.
498

* * *

method.notes: Cytotoxicity against human GES1 cells assessed as cell growth inhibition measured after 48 hrs by MTT assay
Type: toxicity, cell-based
Item-by-item account of GI50 at 48 h
Form entry: value (µM) — number only.

Some compounds with recorded GI50 at 48 h:
>  <smiles.str>
O=C(CCc1cccc(-c2cnc3[nH]ccc3c2)c1)Nc1ccc(NCCN2CCOCC2)c(C(F)(F)F)c1

>  <result>
75.5

$$$$
>  <smiles.str>
Cc1c(Br)c(Br)c2c3c1nc(N1CCNCC1)n3CCC2

>  <result>
55.3

$$$$

Name the recorded GI50 at 48 h of the item CNC(=O)c1cc(Oc2ccc(NC(=O)Nc3ccc(Cl)c(C(F)(F)F)c3)cc2)ccn1 in your answer.
15.9

Name the recorded GI50 at 48 h of the item Cn1ncc2cc(-c3cncc(Cl)c3N3CCC4(CCNC4=O)CC3)ccc21 in your answer.
50

* * *

method.notes: MRT in Sprague-Dawley rat at 5 mg/kg, iv measured upto 12 hrs by LC-MS/MS analysis
Assay type: ADME, organism-based
condition.set: in vivo
measured.quantity: MRT (h)
Form entry: value (h) — number only.

Name the recorded MRT of the item Cc1ccc(NC(=O)CCc2cccc(-c3cnc4[nH]ccc4c3)c2)cc1C(F)(F)F in your answer.
1.76

* * *

target.desc: UniProtKB P49336
method.notes: Inhibition of CDK8 (unknown origin) incubated in presence of ATP by ADP-Glo kinase assay
measured.quantity: IC50 (nM)

A. O=C(NCCc1cccc(-c2cnc3[nH]ccc3c2)c1)c1ccc(Cl)c(C(F)(F)F)c1
B. Cn1ncc2cc(-c3cncc(Cl)c3N3CCC4(CCNC4=O)CC3)ccc21
Identify the entry with the smaller IC50: A or B . Please identify the chosen entry by its label.
B
